Biological target: Fuc(a1-2)Gal(b1-3)GlcNAc(b1-3)[Gal(b1-4)GlcNAc(b1-6)]Gal(b1-4)Glc
Assay: glycan array binding signal (z-score within array); higher = stronger binding
Settings: glycan notation: IUPAC condensed, linker removed
Shown is part of a subset that was picked to be rich in the strongest signals.
Measured glycan array binding signal (z-score), listed per entry for reference.

Nc3LysM-2 (protein) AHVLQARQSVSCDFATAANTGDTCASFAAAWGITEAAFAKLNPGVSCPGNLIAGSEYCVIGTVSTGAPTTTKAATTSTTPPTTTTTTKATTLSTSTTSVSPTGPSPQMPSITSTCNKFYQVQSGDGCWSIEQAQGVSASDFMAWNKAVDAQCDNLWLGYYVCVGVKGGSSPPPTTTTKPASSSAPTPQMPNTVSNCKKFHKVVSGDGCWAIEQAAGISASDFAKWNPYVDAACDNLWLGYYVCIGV    0.735
SP8524D-bot-399-27-399 (Bacteroides ovatus) (protein) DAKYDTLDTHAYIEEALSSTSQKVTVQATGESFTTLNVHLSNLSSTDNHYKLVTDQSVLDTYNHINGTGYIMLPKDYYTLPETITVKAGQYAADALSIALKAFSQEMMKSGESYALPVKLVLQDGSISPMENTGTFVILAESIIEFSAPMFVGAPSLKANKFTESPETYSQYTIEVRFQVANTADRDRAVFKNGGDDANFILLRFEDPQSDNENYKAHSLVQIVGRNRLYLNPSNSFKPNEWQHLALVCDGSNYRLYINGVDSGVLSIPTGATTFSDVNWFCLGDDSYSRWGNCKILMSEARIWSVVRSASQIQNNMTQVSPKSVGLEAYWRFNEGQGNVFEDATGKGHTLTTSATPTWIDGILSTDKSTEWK    -0.119
CAA (Caragana arborescens) (protein) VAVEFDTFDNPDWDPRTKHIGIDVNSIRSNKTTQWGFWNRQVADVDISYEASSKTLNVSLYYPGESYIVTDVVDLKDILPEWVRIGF    -0.249

Fill in the blank: the reported glycan array binding signal (z-score) of MAA (Maackia amurensis), P0DKL3 (protein) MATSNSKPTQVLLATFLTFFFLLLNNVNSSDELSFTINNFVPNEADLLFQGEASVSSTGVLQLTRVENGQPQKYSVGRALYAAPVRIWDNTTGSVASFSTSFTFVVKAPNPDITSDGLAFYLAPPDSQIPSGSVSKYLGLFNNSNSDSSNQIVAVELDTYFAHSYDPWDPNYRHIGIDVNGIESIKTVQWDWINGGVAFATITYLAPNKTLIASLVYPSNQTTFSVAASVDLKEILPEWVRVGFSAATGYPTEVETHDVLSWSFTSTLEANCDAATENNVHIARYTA is ____.
-0.262

Fill blank: measured glycan array binding signal (z-score) of the binder CpGal16 (Clavelina picta) (protein) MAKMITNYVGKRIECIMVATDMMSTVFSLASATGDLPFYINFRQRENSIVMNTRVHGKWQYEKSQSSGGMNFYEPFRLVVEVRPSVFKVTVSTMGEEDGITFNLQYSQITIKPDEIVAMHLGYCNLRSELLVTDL is ____.
2.79
